cell viability values, listed per item
System: SEM cells
testSummary: cell viability relative to DMSO control; higher = less cytotoxic
conditionParameters: RPMI 5 mM glucose + 10% dialyzed FBS; 48 h; 0.569 µM
Answer with the figure and its unit, nothing else.

{"chemicalSmiles": "COc1cc2cc(c1Cl)N(C)C(=O)C[C@H](OC(=O)C(C)C)[C@]1(C)O[C@@H]1[C@H](C)[C@@H]1C[C@@](O)(NC(=O)O1)[C@H](OC)/C=C/C=C(\\C)C2", "testReadout": "cell viability", "observedResult": "5.76%"}
{"chemicalSmiles": "Cc1cnc(Nc2cccc(CN3CCOCC3)c2)nc1Nc1cccc([S+](=O)([O-])NC(C)(C)C)c1", "testReadout": "cell viability", "observedResult": "81.8%"}
{"chemicalSmiles": "CCCCN1CCC(CNC(=O)c2c3n(c4ccccc24)CCCO3)CC1", "testReadout": "cell viability", "observedResult": "103%"}

Lookup: Can you look up the measured cell viability of O=c1oc2cc(O)ccc2s1 for me?
Found: 112%

Lookup: Can you look up the measured cell viability of CCn1c(C(=O)N(C2CC2)C2CC2)cc2c3c(ncn3C)c(Nc3cc(C)n(C)n3)nc21 for me?
Found: 102%

Lookup: Can you look up the measured cell viability of Cn1cnc(N)c2ncnc1-2 for me?
Found: 118%

Lookup: Can you look up the measured cell viability of CCCCCN(C)CCC(O)(P(=O)([O-])O)P(=O)(O)O for me?
Found: 83.2%

Lookup: Can you look up the measured cell viability of Cc1nc(-c2ccc(-c3ccc(C(=O)N4CCc5cc6c(cc54)C4(CCN(C)CC4)CO6)cc3)c(C)c2)no1 for me?
Found: 104%

----------
cell viability values, listed per item
Tested on: P12-Ichikawa
testSummary: cell viability relative to DMSO control; higher = less cytotoxic
conditionParameters: RPMI 5 mM glucose + 10% dialyzed FBS; 48 h; 0.0632 µM
Answer with the figure and its unit, nothing else.

Recorded cell viability, per entry:
{"chemicalSmiles": "Cc1nnc(C(=O)NC(C)(C)c2nc(C(=O)NCc3ccc(F)cc3)c(O)c(=O)n2C)o1", "measuredTarget": "P12-Ichikawa", "cell viability": "98.7%"}
{"chemicalSmiles": "COc1cc2cc(c1Cl)N(C)C(=O)C[C@H](OC(=O)C(C)C)[C@]1(C)O[C@@H]1[C@H](C)[C@@H]1C[C@@](O)(NC(=O)O1)[C@H](OC)/C=C/C=C(\\C)C2", "measuredTarget": "P12-Ichikawa", "cell viability": "14.3%"}
{"chemicalSmiles": "COc1cc(N2CCN(C)CC2)ccc1Nc1nc(N)c(C(=O)c2c(Cl)cccc2Cl)s1", "measuredTarget": "P12-Ichikawa", "cell viability": "112%"}

Attention now shifts to the item below.
Lookup: Can you look up the measured cell viability of O=C(O)c1cccnc1 for me?
Found: 108%

----------
Tested on: SEM cells
testSummary: cell viability relative to DMSO control; higher = less cytotoxic
conditionParameters: HPLM + 10% dialyzed FBS; 48 h; 0.0632 µM
testReadout: cell viability (%)
Number only, in %; omit the unit.

{"compound": "C[C@]12CC[C@H]3[C@@H](CC[C@@]45O[C@@H]4C(O)=C(C#N)C[C@]35C)[C@@H]1CC[C@@H]2O", "testReadout": "cell viability", "unitTag": "%", "observedResult": 109}
{"compound": "CCOC(=O)c1c(CSc2ccccc2)n(C)c2cc(Br)c(O)c(CN(C)C)c12", "testReadout": "cell viability", "unitTag": "%", "observedResult": 96.2}
{"compound": "CC1Cc2ccccc2N1NC(=O)c1ccc(Cl)c([S+](N)(=O)[O-])c1 (centres undefined)", "testReadout": "cell viability", "unitTag": "%", "observedResult": 94.3}

Lookup: State its cell viability on SEM cells: CCn1c(C(=O)N(C2CC2)C2CC2)cc2c3c(ncn3C)c(Nc3cc(C)n(C)n3)nc21
Found: 107

Lookup: State its cell viability on SEM cells: C[C@@H](Cc1cc2c(c(C(N)=O)c1)N(CCCO)CC2)NCCOc1ccccc1OCC(F)(F)F
Found: 99

----------
cell viability values, listed per item
System: NOMO1
testSummary: cell viability relative to DMSO control; higher = less cytotoxic
conditionParameters: HPLM + 10% dialyzed FBS; 48 h; 0.19 µM
Number only, in %; omit the unit.

Lookup: Can you look up the measured cell viability of COCCCC/C(=N\OCCN)c1ccc(C(F)(F)F)cc1 for me?
Found: 91.8

Lookup: Can you look up the measured cell viability of O=C(Nc1ccccc1)Nc1ccc(-c2ccc(C(=O)[C@@H]3CCC[C@H]3C(=O)O)cc2)cc1 for me?
Found: 98.3

Lookup: Can you look up the measured cell viability of Cc1nc(-c2ccc(-c3ccc(C(=O)N4CCc5cc6c(cc54)C4(CCN(C)CC4)CO6)cc3)c(C)c2)no1 for me?
Found: 131

Lookup: Can you look up the measured cell viability of CC(C)C[C@H](CC(=O)O)C(=O)N[C@@H](Cc1c[nH]c2ccccc12)C(=O)N[C@@H](C)c1ccccc1 for me?
Found: 123

Lookup: Can you look up the measured cell viability of COc1cccc(OC)c1-c1cc(C(=O)NC2(C(=O)O)C3CC4CC(C3)CC2C4)nn1-c1ccnc2cc(Cl)ccc12 (stereo not given) for me?
Found: 123

----------
Test system: SEM cells
testSummary: cell viability relative to DMSO control; higher = less cytotoxic
conditionParameters: RPMI 5 mM glucose + 10% dialyzed FBS; 48 h; 5.12 µM
testReadout: cell viability (%)
Number only, in %; omit the unit.

Recorded cell viability, per entry:
{"chemicalSmiles": "CC1(C)[C@@H](O)CC[C@@]2(C)[C@H]1CC[C@]3(C)[C@@H]2C(=O)\\C=C/4[C@@H]5C[C@](C)(CC[C@]5(C)CC[C@@]34C)C(O)=O", "measuredTarget": "SEM cells", "testReadout": "cell viability", "unitTag": "%", "observedResult": 90.2}
{"chemicalSmiles": "CCC[C@H](Nc1nc(-c2ccc(NC(=O)NCC)c(OC)c2)ncc1C)c1cccnc1", "measuredTarget": "SEM cells", "testReadout": "cell viability", "unitTag": "%", "observedResult": 7.58}
{"chemicalSmiles": "CCOc1ccccc1N/N=C1/C(=O)N(c2nc(-c3ccccc3)cs2)N=C1C", "measuredTarget": "SEM cells", "testReadout": "cell viability", "unitTag": "%", "observedResult": 59.4}

Lookup: Can you look up the measured cell viability of OC1=C(Cl)C=C(N\C2=C(\C(=O)NC2=O)C3=C(C=CC=C3)[N+]([O-])=O)C=C1 for me?
Found: 88.2

Lookup: Can you look up the measured cell viability of NC[C@H](O)c1ccc(O)c(O)c1 for me?
Found: 96.7

Lookup: Can you look up the measured cell viability of CC(C)C[C@H](CC(=O)O)C(=O)N[C@@H](Cc1c[nH]c2ccccc12)C(=O)N[C@@H](C)c1ccccc1 for me?
Found: 90.2

----------
System: SEM cells
testSummary: cell viability relative to DMSO control; higher = less cytotoxic
conditionParameters: HPLM + 10% dialyzed FBS; 48 h; 0.569 µM
testReadout: cell viability (%)
Number only, in %; omit the unit.

Recorded cell viability, per entry:
{"chemicalSmiles": "CC1(C)CCC(C)(C)c2cc(NC(=O)c3ccc(C(=O)O)cc3)ccc21", "observedResult": 124}
{"chemicalSmiles": "N#CC1(c2cccc(C(=O)Nc3cc(Oc4ccc5nc(NC(=O)C6CC6)sc5n4)ccc3F)c2Cl)CC1", "observedResult": 102}
{"chemicalSmiles": "CCc1nc(N)nc(N)c1-c1ccc(Cl)cc1", "observedResult": 98.9}

Lookup: Can you look up the measured cell viability of Nc1ncnc2nc(-c3ccc(N4CCOCC4)nc3)cc(-c3cccc(Br)c3)c12 for me?
Found: 117

Lookup: Can you look up the measured cell viability of Cc1cc(/C=c2/sc3nc4ccccc4n3c2=O)c(C)n1-c1ccccc1 for me?
Found: 125

Lookup: Can you look up the measured cell viability of COCC(=O)NC/C=C/c1ccc2ncnc(Nc3ccc(Oc4ccc(C)nc4)c(C)c3)c2c1 for me?
Found: 108

Lookup: Can you look up the measured cell viability of CN(C)c1ccc(-c2nc3c(N4CCN(CC(=O)Nc5nccs5)CC4)c(Cl)cnc3[nH]2)cc1 for me?
Found: 109

Lookup: Can you look up the measured cell viability of Cc1cnc(Nc2cccc(CN3CCOCC3)c2)nc1Nc1cccc([S+](=O)([O-])NC(C)(C)C)c1 for me?
Found: 84.7

----------
Tested on: NOMO1
testSummary: cell viability relative to DMSO control; higher = less cytotoxic
conditionParameters: RPMI 5 mM glucose + 10% FBS; 48 h; 0.569 µM
cell viability values, listed per item
Number only, in %; omit the unit.

{"molecule": "CC1(C)CCC(C)(C)c2cc(NC(=O)c3ccc(C(=O)O)cc3)ccc21", "observedResult": 99.8}
{"molecule": "CC(O)(C[S+](=O)([O-])c1ccc(F)cc1)C(=O)Nc1ccc(C#N)c(C(F)(F)F)c1 (stereo unspecified)", "observedResult": 91.6}
{"molecule": "CCC(=O)N1CCN(CC1)C2=C(C=C(C=C2)N3C(=O)\\C=C/C4=C3C5=CC(=CC=C5N=C4)C6=CN=C7C=CC=CC7=C6)C(F)(F)F", "observedResult": 72.7}
{"molecule": "CN(C)c1ccc(-c2nc3c(N4CCN(CC(=O)Nc5nccs5)CC4)c(Cl)cnc3[nH]2)cc1", "observedResult": 93.6}
{"molecule": "CC(C)[C@H](O)C(=O)N[C@@H](C)C(=O)N[C@@H]1C(=O)N(C)CCc2ccccc21", "observedResult": 125}

Lookup: Can you look up the measured cell viability of O=C(CCCN1CCC(O)(c2ccc(Cl)cc2)CC1)c1ccc(F)cc1 for me?
Found: 110

Lookup: Can you look up the measured cell viability of CC1(C)[C@@H](O)CC[C@@]2(C)[C@H]1CC[C@]3(C)[C@@H]2C(=O)\C=C/4[C@@H]5C[C@](C)(CC[C@]5(C)CC[C@@]34C)C(O)=O for me?
Found: 102

Lookup: Can you look up the measured cell viability of C[C@@H]1CC[C@@]2(CC[C@]3(C)\C(=C/C[C@@H]4[C@@]5(C)C[C@@H](O)[C@H](O)[C@@](C)(CO)[C@@H]5CC[C@@]34C)[C@@H]2[C@H]1C)C(O)=O for me?
Found: 110

Lookup: Can you look up the measured cell viability of Cc1noc(N[S+](=O)([O-])c2ccc(N)cc2)c1C for me?
Found: 113

Lookup: Can you look up the measured cell viability of CCOc1ccccc1N/N=C1/C(=O)N(c2nc(-c3ccccc3)cs2)N=C1C for me?
Found: 101

Lookup: Can you look up the measured cell viability of OC1=C(Cl)C=C(N\C2=C(\C(=O)NC2=O)C3=C(C=CC=C3)[N+]([O-])=O)C=C1 for me?
Found: 94.5

meta.source: the supplement of paper PMC11451515
